Biological target: T1, huIgG1 huCLL1 (human, UniProt Q5QGZ9 65-265, limits assumed)
T1 construct: not shown: human IgG1 part
T1 sequence: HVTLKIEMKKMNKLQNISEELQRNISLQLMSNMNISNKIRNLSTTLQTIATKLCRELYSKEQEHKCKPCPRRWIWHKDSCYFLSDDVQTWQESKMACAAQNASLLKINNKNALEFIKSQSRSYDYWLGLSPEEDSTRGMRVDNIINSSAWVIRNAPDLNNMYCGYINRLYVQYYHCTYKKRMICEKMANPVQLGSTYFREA
Assay: Octet BLI, mAb captured on FAB2G biosensor, antigen in solution
Value Kind: t½ (min)
Write the answer as a number in min, unit excluded.

Task: Check the records and state t½ for D2AD88607-5141 (antibody, V domains shown, also called mAb_038) VH: QVQLVESGGGVVQPGRSLRLSCAASGFTFSSYGMHWVRQAPGKGLEWVAIISYDGSDKYYADSVKGRFTISRDNSKNTLYLQMNSLRAEDTAVYYCARNYNYYMDVWGKGTTVTVSS VL: EIVMTQSPATLSLSPGERATLSCRASQSVRSSYLSWYQQKPGQAPRLLIYGTSTRATGIPARFSGSGSGTDFTLTISSLQPEDFAVYYCQQDYNLPLTFGGGTKVEIK
Output: 2.3
